Attribution: paper PMC12529666

# target-entity: AGO2 F182del (Homo sapiens, UniProt Q9UKV8 1-859, S387D;S824A;S828D;S831D;S834A;del182-182)
# Sequence (Q9UKV8 other isoform, or with tags, fused parts or gaps S387D;S824A;S828D;S831D;S834A;del182-182): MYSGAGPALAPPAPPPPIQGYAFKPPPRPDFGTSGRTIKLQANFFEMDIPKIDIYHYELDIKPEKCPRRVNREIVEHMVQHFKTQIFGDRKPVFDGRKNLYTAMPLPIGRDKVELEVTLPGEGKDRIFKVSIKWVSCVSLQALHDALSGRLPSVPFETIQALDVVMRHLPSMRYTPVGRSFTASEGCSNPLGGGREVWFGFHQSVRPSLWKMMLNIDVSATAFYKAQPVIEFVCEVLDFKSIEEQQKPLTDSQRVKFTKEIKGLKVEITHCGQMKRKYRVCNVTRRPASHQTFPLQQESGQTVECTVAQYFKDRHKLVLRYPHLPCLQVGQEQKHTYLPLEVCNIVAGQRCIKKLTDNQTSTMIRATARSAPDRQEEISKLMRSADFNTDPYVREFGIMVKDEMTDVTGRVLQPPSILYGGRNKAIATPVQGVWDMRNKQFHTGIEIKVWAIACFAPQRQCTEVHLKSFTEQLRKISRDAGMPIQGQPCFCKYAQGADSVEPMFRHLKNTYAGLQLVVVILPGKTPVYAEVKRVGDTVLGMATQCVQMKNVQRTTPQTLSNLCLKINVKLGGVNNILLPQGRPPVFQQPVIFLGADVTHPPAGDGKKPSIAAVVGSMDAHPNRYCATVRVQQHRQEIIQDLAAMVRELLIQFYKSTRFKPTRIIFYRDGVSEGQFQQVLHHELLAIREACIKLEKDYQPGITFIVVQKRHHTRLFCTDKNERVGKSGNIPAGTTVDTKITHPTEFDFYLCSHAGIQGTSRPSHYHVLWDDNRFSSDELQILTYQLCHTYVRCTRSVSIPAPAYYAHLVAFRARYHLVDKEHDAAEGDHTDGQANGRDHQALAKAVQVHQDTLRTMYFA
# experimental-protocol: RNA Bind-n-Seq (nitrocellulose filter binding and sequencing); miR-122 guide loaded in AGO2; 60 min incubation; 30 mM Tris pH 8.0, 100 mM potassium acetate, 2 mM magnesium acetate, 0.5 mM TCEP, 0.005% NP-40, 0.01 mg/ml yeast tRNA; 3 nM AGO2-miR-122, 100 nM RNA library; 60; high values mean tight binding
# recorded-conditions: protein: recombinant; tags: His6 (N-terminal, pFastBac HTA)
attribute-measured: binding signal

binder="ACACCCCG (ssRNA, constant regions annealed to DNA blockers; guide miR-122 5' phosphate) RNA 1: GAGUUCUACAGUCCGACGAUCCCAACACACCCCGCACCUGGAAUUCUCGGGUGCCAA RNA 2: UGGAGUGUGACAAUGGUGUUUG DNA 1: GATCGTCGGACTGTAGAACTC DNA 2: TTGGCACCCGAGAATTCCA" attribute_measured="binding signal" assay_result="0.82 fold enrichment over input"
binder="ATGCCCCA (ssRNA, constant regions annealed to DNA blockers; guide miR-122 5' phosphate) RNA 1: GAGUUCUACAGUCCGACGAUCCCAACAUGCCCCACACCUGGAAUUCUCGGGUGCCAA RNA 2: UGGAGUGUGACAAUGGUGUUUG DNA 1: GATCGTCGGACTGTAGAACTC DNA 2: TTGGCACCCGAGAATTCCA" attribute_measured="binding signal" assay_result="0.191 fold enrichment over input"
binder="GCGCTCCG (ssRNA, constant regions annealed to DNA blockers; guide miR-122 5' phosphate) RNA 1: GAGUUCUACAGUCCGACGAUCCCAACGCGCUCCGCACCUGGAAUUCUCGGGUGCCAA RNA 2: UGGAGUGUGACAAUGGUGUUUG DNA 1: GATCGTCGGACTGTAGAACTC DNA 2: TTGGCACCCGAGAATTCCA" attribute_measured="binding signal" assay_result="7.66 fold enrichment over input"
binder="GTGCTCCG (ssRNA, constant regions annealed to DNA blockers; guide miR-122 5' phosphate) RNA 1: GAGUUCUACAGUCCGACGAUCCCAACGUGCUCCGCACCUGGAAUUCUCGGGUGCCAA RNA 2: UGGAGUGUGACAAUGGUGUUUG DNA 1: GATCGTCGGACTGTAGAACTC DNA 2: TTGGCACCCGAGAATTCCA" attribute_measured="binding signal" assay_result="0.426 fold enrichment over input"
binder="GCGTTTCA (ssRNA, constant regions annealed to DNA blockers; guide miR-122 5' phosphate) RNA 1: GAGUUCUACAGUCCGACGAUCCCAACGCGUUUCACACCUGGAAUUCUCGGGUGCCAA RNA 2: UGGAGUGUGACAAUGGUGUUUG DNA 1: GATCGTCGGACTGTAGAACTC DNA 2: TTGGCACCCGAGAATTCCA" attribute_measured="binding signal" assay_result="0.326 fold enrichment over input"

Lookup: So what's the measured binding signal for this one? GCATTCCA (ssRNA, constant regions annealed to DNA blockers; guide miR-122 5' phosphate) RNA 1: GAGUUCUACAGUCCGACGAUCCCAACGCAUUCCACACCUGGAAUUCUCGGGUGCCAA RNA 2: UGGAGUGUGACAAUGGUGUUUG DNA 1: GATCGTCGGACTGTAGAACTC DNA 2: TTGGCACCCGAGAATTCCA
Found: 1.01 fold enrichment over input

Lookup: Same thing, different binder: ACATCCTA (ssRNA, constant regions annealed to DNA blockers; guide miR-122 5' phosphate) RNA 1: GAGUUCUACAGUCCGACGAUCCCAACACAUCCUACACCUGGAAUUCUCGGGUGCCAA RNA 2: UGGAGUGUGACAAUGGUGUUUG DNA 1: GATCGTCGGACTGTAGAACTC DNA 2: TTGGCACCCGAGAATTCCA
Found: 0.299 fold enrichment over input

Lookup: Same lookup for GTACTTCA (ssRNA, constant regions annealed to DNA blockers; guide miR-122 5' phosphate) RNA 1: GAGUUCUACAGUCCGACGAUCCCAACGUACUUCACACCUGGAAUUCUCGGGUGCCAA RNA 2: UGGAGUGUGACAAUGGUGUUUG DNA 1: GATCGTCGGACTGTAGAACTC DNA 2: TTGGCACCCGAGAATTCCA , please.
Found: 0.936 fold enrichment over input

Lookup: One more binder: ACATTTTA (ssRNA, constant regions annealed to DNA blockers; guide miR-122 5' phosphate) RNA 1: GAGUUCUACAGUCCGACGAUCCCAACACAUUUUACACCUGGAAUUCUCGGGUGCCAA RNA 2: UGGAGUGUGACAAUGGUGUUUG DNA 1: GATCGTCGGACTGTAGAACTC DNA 2: TTGGCACCCGAGAATTCCA
Found: 0.359 fold enrichment over input

Lookup: Another: GTACTCCG (ssRNA, constant regions annealed to DNA blockers; guide miR-122 5' phosphate) RNA 1: GAGUUCUACAGUCCGACGAUCCCAACGUACUCCGCACCUGGAAUUCUCGGGUGCCAA RNA 2: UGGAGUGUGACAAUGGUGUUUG DNA 1: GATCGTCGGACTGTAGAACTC DNA 2: TTGGCACCCGAGAATTCCA
Found: 2.42 fold enrichment over input

Lookup: Try this binder next: GCACCCCG (ssRNA, constant regions annealed to DNA blockers; guide miR-122 5' phosphate) RNA 1: GAGUUCUACAGUCCGACGAUCCCAACGCACCCCGCACCUGGAAUUCUCGGGUGCCAA RNA 2: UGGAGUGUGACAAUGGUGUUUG DNA 1: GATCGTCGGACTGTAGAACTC DNA 2: TTGGCACCCGAGAATTCCA
Found: 0.203 fold enrichment over input
